test system: SR; assay: NCI tumour cell line growth inhibition, 48 h
Activity calls are given as the source filed them. Rule as the data show it: active = GI50 up to about 1.1 µM and inactive = higher.
Form entry, call: pick from active, inactive

Compound: CSC(SC)=C(C#N)C(=O)Nc1ccc(Cl)cc1
Assay system: SR
Discrete label: inactive
//
Compound: CC(=O)/C(=C(/Br)I)c1ccccc1
Assay system: SR
Discrete label: inactive
//
Compound: O=C1C2=C(C(=O)c3c(O)ccc(O)c31)[C@@H](O)[C@@H](O)[C@@H](O)C2
Assay system: SR
Discrete label: inactive
//
Compound: CC1=NN(C(=O)c2ccccc2O)C(c2ccccc2Cl)C1C(=O)Nc1ccccc1 (configuration not stated)
Assay system: SR
Discrete label: active
//
Compound: COC(=O)C1CC2C=CC1N(C(=O)OCc1ccccc1)C2 (configuration not stated)
Assay system: SR
Discrete label: inactive

Enquiry: # outcome recorded in this test, key = N#C[C@H](C(=O)c1ccccc1F)c1nc2ccccc2[nH]1
Return: inactive

Enquiry: Would you kindly repeat that for CCOC(=O)c1cc2c(cn1)[nH]c1cccc(N)c12 ?
Return: inactive

Enquiry: Would you kindly repeat that for COc1ccc(C(CC(=O)c2ccc(O)cc2)C(C(=O)c2ccc(O)cc2)C(c2ccc(OC)cc2)C2C(=O)NC(=S)NC2=O)cc1 (configuration not stated) ?
Return: inactive

Enquiry: Would you kindly repeat that for O=C1CSC(c2cccc(Oc3ccccc3)c2)N1c1cc(Cl)ccc1Cl (configuration not stated) ?
Return: inactive

Enquiry: Would you kindly repeat that for COC(=O)C1Cc2ccc3c(c2C1=O)CCCC3 (configuration not stated) ?
Return: inactive

Enquiry: Would you kindly repeat that for CCOC(=O)c1nc2ccccc2nc1Nc1ccc(OC)cc1 ?
Return: inactive

Enquiry: Would you kindly repeat that for CC1=NN(c2nc(N)nc(-c3cc4ccccc4oc3=N)n2)C(C)(C)C1 ?
Return: inactive

Enquiry: Would you kindly repeat that for CC1CN=C(N(C(=O)Nc2ccccc2)c2ccccc2)S1 (configuration not stated) ?
Return: inactive

Enquiry: Would you kindly repeat that for COC(=O)c1c(C)cc(OC)c(C/C=C(\C)CCCc2coc(C=C(C)C)c2)c1OC ?
Return: inactive

Enquiry: Would you kindly repeat that for C=CC(=O)NC(O)(C(=O)OCC)C(F)(F)F (configuration not stated) ?
Return: inactive

Enquiry: Would you kindly repeat that for CSC1=N/C(=C\c2ccc(C)cc2)C(=O)N1 ?
Return: inactive

Enquiry: Would you kindly repeat that for CCc1ccccc1N1CCN(C(=O)c2cc(OC)c(OC)c(OC)c2)CC1 ?
Return: active

Enquiry: Would you kindly repeat that for O=C1/C(=C/c2ccc(Br)s2)NC(=S)N1c1ccccc1 ?
Return: inactive

Enquiry: Would you kindly repeat that for CCOC1=NC(O)c2cccn2-c2sccc21 (configuration not stated) ?
Return: inactive
